Test system: NPC1 patient cell fibroblasts
Experiment: Filipin Staining Assay to Detect Free Cholesterol Accumulation in NPC Cells
Format: cell-based, human
Settings: filipin fluorescence relative to untreated cells; 1 μM
observed.property: % storage at 1 μM (%)
Give the number; % is assumed, so skip it.

Observe how each entry below is paired with its result.
COc1ccc(NC(=O)c2[nH]c(C)c(C(C)=O)c2C)cc1S(=O)(=O)Nc1ccc(Br)cc1 [Example 36]: 25
CC(=O)c1c(C)[nH]c(C(=O)Nc2ccc(OCCCN(C)C)c(S(=O)(=O)Nc3ccc(Br)cc3)c2)c1C [Example 54]: 60
COc1ccc(NC(=O)c2c[nH]cn2)cc1S(=O)(=O)Nc1ccc(Br)cc1 [Example 56]: 48

Now look at this one.
Query string: Could you tell me which % storage at 1 μM is on file for COc1ccc(NC(=O)c2[nH]c(C)c(C(C)=O)c2C)cc1S(=O)(=O)Nc1ccc(C#N)cc1 [Example 41] ?
Result string: 58

----------
# NPC1 Eff. per entry
System: NPC1 promoter
Test: qHTS of NPC1 Promoter-Luciferase Reporter Gene Assay (firefly, Huh7)
Format: cell-based, human
Conditions: 24 hours
Respond numerically; units are % and should not be typed.

These solved cases illustrate the format of a correct answer.
CCc1ccc(NC(=O)c2[nH]c(C)c(C(C)=O)c2C)cc1S(=O)(=O)Nc1cccc(C#N)c1 [Example 33]: 140
CCN(CC)S(=O)(=O)c1cccc(NC(=O)c2[nH]c(C)c(C(C)=O)c2C)c1 [Example 2]: 155
CC(=O)c1cccc(C(=O)Nc2cccc(S(=O)(=O)N(C)C)c2)c1 [Example 19]: 40
CN(C)S(=O)(=O)c1cccc(NC(=O)c2ccccc2C(F)(F)F)c1 [Example 16]: 125
CC(=O)c1c(C)[nH]c(C(=O)Nc2cccc(S(=O)(=O)N3CCCCC3)c2)c1C [Example 4]: 163
CC(=O)c1c(C)[nH]c(C(=O)Nc2cccc(S(=O)(=O)N3CCOCC3)c2)c1C [Example 7]: 84

Let us move to another entry and its NPC1 Eff..
Query string: # NPC1 Eff. lookup, item CC(=O)c1c(C)[nH]c(C(=O)Nc2cccc(S(=O)(=O)Nc3ccc(Br)cc3)c2)c1C [Example 32]
Result string: 80

----------
The following compounds are listed with their measured Rab9 Eff. values.
Tested on: Rab9 promoter
Test: qHTS of Rab9 Promoter-Luciferase Reporter Gene Assay (firefly, Huh7)
Format: cell-based, human
Conditions: 24 hours
Report the figure in % without appending any unit label.

CC(=O)c1c(C)[nH]c(C(=O)Nc2cccc(S(=O)(=O)N(C)C)c2)c1C: 148
CC(=O)c1c(C)[nH]c(C(=O)Nc2cccc(S(=O)(=O)N3CCCCC3)c2)c1C: 134
CC(=O)c1c(C)[nH]c(C(=O)Nc2cccc(S(=O)(=O)N3CCOCC3)c2)c1C: 122

Query string: Requested read-out Rab9 Eff., target or system Rab9 promoter, entry `CC(=O)c1c(C)[nH]c(C(=O)Nc2cccc(S(=O)(=O)N3CCCCCC3)c2)c1C`
Result string: 153

Query string: Consider next the compound `CN(C)S(=O)(=O)c1cccc(NC(=O)c2ccccc2C(F)(F)F)c1` in the same way.
Result string: 155

Query string: Thanks! And `Cc1ccc(C(=O)Nc2cccc(S(=O)(=O)N(C)C)c2)c(C)c1` ?
Result string: 97

Query string: Another: `CC(=O)c1c(C)[nH]c(C(=O)Nc2cccc(S(=O)(=O)N3CCCC3)c2)c1C`
Result string: 149

Query string: Proceed to `CC(=O)c1ccc(C(=O)Nc2cccc(S(=O)(=O)N(C)C)c2)cc1`
Result string: 110
